Test system: MDA-N
Assay: NCI tumour cell line growth inhibition, 48 h
For each entry below, report its TGI value.

Example cases with answers are listed next.
* Cc1cc2c3c(nc4ccccc42)C(=O)c2cccnc2-c3n1 | 0.294 µM
* CC1=C(C)C2(C#N)C(=O)N3C(=NC(c4ccco4)NC3c3ccco3)C2(C#N)C(c2ccco2)N1 (stereo not given) | > 100 µM
* C[Si](C)(C)CCOCN(C(=O)C1=CCC2(CC1)OCCO2)c1ccccc1I | 59.1 µM
* C[n+]1c(-c2ccc(/C=N\Nc3ccnc(N/N=C/c4ccc(-c5cn6ccsc6[n+]5C)cc4)n3)cc2)cn2ccsc21 | 26.7 µM
* CCc1n[nH]c(=O)n1-n1c(C)ccc1C | > 100 µM

Hi team, please reply with TGI for each item in this list.
1. CC(C)(C)OC(=O)NC(Cc1ccc(OC(C)(C)C)cc1)C(=O)N[C@H]1CC[C@H](C(=O)O)C1 (stereo not given in full)
2. COC(=O)NC1=Nc2ccccc2C(=O)NN1
3. COc1ccc(/C(=N/Nc2nc3ccccc3n2Cc2ccccc2)C(=O)O)cc1
4. OCC1NC(CO)C(O)C1O (stereo not given)
5. COc1ccc(/C=C/C(=O)OC2CC34CCNC35CC(OC5(OC)C2OC)c2ccc(OC)c(O)c24)cc1O (stereo not given)
6. O=C(NCCc1ccccn1)c1ccc2cc(C(=O)N3CC(CCl)c4ccc([N+](=O)[O-])cc43)[nH]c2c1 (stereo not given)
7. O=c1c2c3c(sc2nc2n1sc1nc4sc5c(c4c(=O)n12)CCCC5)CCCC3
8. COC(=O)CSc1cc(Cl)c(C)cc1S(=O)(=O)Nc1n[nH]c(N)n1

Response given:
1: > 100 µM; 2: > 100 µM; 3: > 100 µM; 4: > 100 µM; 5: > 100 µM; 6: > 100 µM; 7: 97.4 µM; 8: > 10 µM

Give TGI for each listed item.
1. O=C(Oc1ccc(C(c2c(O)c3ccccc3oc2=O)c2c(O)c3ccccc3oc2=O)cc1)c1ccc(C(=O)c2ccccc2)cc1
2. CC1CCC2C(C)C(OC(=O)CCC(=O)O)OC3OC4(C)CCC1C32OO4 (stereo not given)

Response given:
> 100 µM
38.7 µM

Numbers sourced from PubChem BioAssay (NCI).
